Values from patent US12473289B2

Target: Delta-5-Desaturase (D5D) (Mus musculus (Mouse))
Sequence (Q920L1 whole entry): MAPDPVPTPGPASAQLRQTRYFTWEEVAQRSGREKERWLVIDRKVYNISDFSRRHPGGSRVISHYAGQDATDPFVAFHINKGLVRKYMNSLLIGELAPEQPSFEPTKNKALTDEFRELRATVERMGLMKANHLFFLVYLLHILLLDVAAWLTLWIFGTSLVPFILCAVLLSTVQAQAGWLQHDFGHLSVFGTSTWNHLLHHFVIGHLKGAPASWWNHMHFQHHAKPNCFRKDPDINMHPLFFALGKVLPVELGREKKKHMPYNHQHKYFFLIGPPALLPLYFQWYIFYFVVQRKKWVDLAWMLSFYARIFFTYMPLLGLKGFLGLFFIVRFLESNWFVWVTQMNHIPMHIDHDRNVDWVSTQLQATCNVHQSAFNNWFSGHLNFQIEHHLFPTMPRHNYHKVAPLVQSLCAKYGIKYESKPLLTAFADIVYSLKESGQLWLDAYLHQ
Test: In vivo measurement of Delta-5-Desaturase inhibitory activity (plasma AA/DGLA ratio in DIO mice)
Settings: single oral dose 30 mg/kg, read-out: Average % D5D Inhibition expressed as Plasma Endogenous AA/DGLA Ratio
I'd be grateful if you could share measured inhibition in vivo at 30 mg/kg for these entries.
Hi, when you answer, please include the unit after the number. Thanks!

# Compound, Tgt, inhibition in vivo at 30 mg/kg
data = [
    ("COc1ccn2c(=O)c(-c3ccc(O[C@@H](C)C#N)cc3)c(C(F)(F)F)nc2c1", "Delta-5-Desaturase (D5D) (Mus musculus (Mouse))", "79%"),
    ("CCOc1nc2cc(OC)ccn2c(=O)c1-c1ccc(OCC(F)(F)F)cc1", "Delta-5-Desaturase (D5D) (Mus musculus (Mouse))", "44%"),
    ("COc1ccn2c(=O)c(-c3ccc(OCC4CC4(F)F)cc3)c(C(F)(F)F)nc2c1 (centres unmarked)", "Delta-5-Desaturase (D5D) (Mus musculus (Mouse))", "60%"),
]

Below is a list of compounds. For each, state its recorded inhibition in vivo at 30 mg/kg.
1. CNc1ccn2c(=O)c(-c3cnn(CC(F)(F)C(F)(F)F)c3)c(C(F)(F)F)nc2c1
2. O=c1ccn2c(=O)c(-c3cnn(CC(F)(F)C(F)(F)F)c3)c(C(F)(F)F)nc2[nH]1

1. 57%
2. 52%
